System: LOX IMVI
protocol: NCI tumour cell line growth inhibition, 48 h
Activity calls are given as the source filed them. Rule as the data show it: active = GI50 up to about 1.1 µM and inactive = higher.
Parameter call: string, one of 1 = active, -1 = inactive

// query Per the assay record, what outcome was assigned to CCOC(=O)C12CCCC1(O)N(NC(=O)OC)C(C)=C2C(=O)OC (stereo unspecified) ?
// result -1

// query Per the assay record, what outcome was assigned to COc1ccc(C2Oc3ccc(Cl)cc3C=C2[N+](=O)[O-])cc1 (stereo unspecified) ?
// result -1

// query Per the assay record, what outcome was assigned to O=C(NCC#CCO)C(F)(F)F ?
// result -1

// query Per the assay record, what outcome was assigned to CCOC(=O)NC(Nc1ccc(F)cc1)(C(=O)OCC)C(F)(F)F (stereo unspecified) ?
// result 1

// query Per the assay record, what outcome was assigned to CCC(O)CC1OC2(CCC1C)CC1OC(=O)/C=C\C(C)(O)C(O)C(C)C(O)C(OC3CC(OC)C(O)C(C)O3)C(O)C(C)(O)CCC/C=C/C3CC(C)COC3(O)CC(O2)C1C (stereo unspecified) ?
// result -1

// query Per the assay record, what outcome was assigned to CCOc1c(Br)cc(Br)cc1C=C(C#N)C#N ?
// result -1

// query Per the assay record, what outcome was assigned to CC(=O)OC1(C#N)CC2OC1C1NC21 (stereo unspecified) ?
// result -1

// query Per the assay record, what outcome was assigned to c1ccc2cc3n[se]nc3cc2c1 ?
// result -1

// query Per the assay record, what outcome was assigned to NC1(C(=O)O)CCCC1 [CYCLOLEUCINE] ?
// result -1

// query Per the assay record, what outcome was assigned to Cc1ccccc1OC(C)C(=O)NN1C(=O)CSC1c1ccccc1 (stereo unspecified) ?
// result -1

// query Per the assay record, what outcome was assigned to O=C(O)c1ccc([N+](=O)[O-])c(P(=O)(O)O)c1 ?
// result -1
